species on record: Homo sapiens; assay: Induction of CRL4/CRBN ubiquitin ligase-mediated GSPT1 degradation in human DF15 cells expressing pLOC-ePL-tagged GSPT1 assessed as GSPT1 protein remaining at 10 uM after 4 hrs by luminescence based beta-galactosidase enzyme fragmentation complementation assay relative to CC-885; format: cell-based
Listed here are molecules together with their documented Activity.
Number in %, nothing else.

>  <MOLECULE>
O=C1CCC(N2Cc3cc(CNC(=O)Nc4ccccc4Cl)ccc3C2=O)C(=O)N1 (centres undefined)

>  <Activity [%]>
7

$$$$

Problem: Would you mind telling me what Activity value was observed for O=C1CCC(N2Cc3cc(CNC(=O)Nc4ccc(Cl)cc4Cl)ccc3C2=O)C(=O)N1 (centres undefined) ?
Solution: -7
